t½ overview
- TARGET DESC: T1, mfGITR.mmh (Macaca fasicularis)
- T1 construct: soluble monomeric construct; also called Macaca fasicularis (mf) GITR.mmh; cynomolgus GITR protein
- T1 chain: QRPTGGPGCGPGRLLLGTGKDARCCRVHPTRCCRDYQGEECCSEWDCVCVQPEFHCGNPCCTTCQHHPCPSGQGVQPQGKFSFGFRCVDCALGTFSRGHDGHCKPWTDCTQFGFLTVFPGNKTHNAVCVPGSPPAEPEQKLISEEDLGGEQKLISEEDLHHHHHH
- PROTOCOL: SPR 37C, mAb capture
All answers are understood in s, so give the number only.

[
  {
    "BINDER": "H1H14493P (antibody, human IgG1, V domains shown, human IgG1 (H1H)) VH: QVQLVESGGGVVQPGRSLRLSCAASGFNFRSYGMHWVRQAPGKGLEWVAVIWYDGSNKYYADSVKGRFTISRDSSRDTLFLQMNSLRAGDTAVYYCARGGMLGRDYYYGMDVWGQGTTVTVSS VL: DIQMTQSPSSLSASVGDRVTITCRASQGIRNDLGWYQQKPGKAPKRLIYAASSLQSGVPSRFSGSGSGTEFTLTISSLQPEDFATYYCLQHNSYPNTFGQGTKLEIK",
    "READING UNIT": "s",
    "t½": 48
  }
]

The binder identified as H1H14520P (antibody, human IgG1, V domains shown, human IgG1 (H1H)) VH: QVQLVESGGGVVQPGRSLRLSCAASGFTFSSFGMHWVRQAPGKGLEWVAVISYDGRNRYYADSVKGRFTISRDNSKNTLYLQMNSLSAEDTAMFYCAKDGFGNSFDYWGQGTLVTVSS VL: DVVMTQSPLSLPVTLGQPASISCRSSQSLLYSDGNTYLTWFQQRPGQSPRRLIYKVSNRDSGVPDRFSGSGSGTDFTLTISRVEAEDVGIYYCMQGTHWPWTFGQGTKVEIK registered its t½ at 42

The binder identified as H1H14474P (antibody, human IgG1, V domains shown, human IgG1 (H1H)) VH: QVQLVESGGGVVQPGRSLRLSCAASGFTFSSYGMDWVRQAPGKGLEWVAVIWYPGSNKYYADSVKGRFTVSRDNSKNTLYLQMNSLRAEDTAVYYCARDGELGLDYYSGMDVWGQGTTVTVSS VL: DIQMTQSPSSLSASVGDRVTITCRASQGIRNDLNWYQQKPGKAPKRLINGASSLQSGVPSRFSGSGSGTEFTLTISSLQPEDFATYYCLQLNSYPRTFGQGTKVEIK registered its t½ at 72
